Here the recorded TGI is given for each entry.
test system: HCT-116 colon; assay: NCI tumour cell line growth inhibition, 48 h
Return type: number; implicit unit µM.

Look over these answered cases.
>>> numeric_value("COc1ccc(Nc2nc(N)c(C(=O)c3ccccc3)s2)cc1")
3.38
>>> numeric_value("CC(=O)c1c(-c2ccccc2)c(-c2ccc(OCCN(C)C)cc2)n2ccccc12")
26
>>> numeric_value("Cc1cccc2c1NC(=O)[C@@]21[C@H](C(=O)c2ccccc2)[C@]2(C(=O)Nc3ccccc32)[C@H]2CCCN21")
46.5

Problem: Check HCT-116 colon data and give TGI for CCN(CC)CCSc1nc2c(c(=N)n1-c1ccccc1)c(=S)n(-c1ccccc1)c(=S)n2-c1ccccc1 .
Result: 4.69

Problem: Check HCT-116 colon data and give TGI for C=Cc1cc2c(cc1O)CC[C@@H]1[C@@H]2CC[C@]2(C)[C@@H](O)CC[C@@H]12 .
Result: 12.1

Problem: Check HCT-116 colon data and give TGI for CCC1CCCCN1C(=S)N/N=C(\C)c1ccccn1 (stereo not given) .
Result: 3.49

Problem: Check HCT-116 colon data and give TGI for CCn1cc(C(=O)N/N=C/c2cccc(F)c2)c(=O)c2cc(F)c(N3CCNC(C)C3)c(F)c21 (stereo not given) .
Result: 3.47

Problem: Check HCT-116 colon data and give TGI for CCCCNC(=O)Oc1ccc2c(=O)c3sc4c(=O)c5ccccc5c(=O)c4c3c(=O)c2c1 .
Result: 1.76

Problem: Check HCT-116 colon data and give TGI for C#Cc1cccc(Nc2ncnc3ccc(-c4cnc(Cl)c(NS(C)(=O)=O)c4)cc23)c1 .
Result: 3.15

Problem: Check HCT-116 colon data and give TGI for CC1OC(O[C@H]2/C=C/C=C/C=C/C=C/C=C/C=C/C=C/[C@H](C)[C@@H](O)[C@@H](C)[C@H](C)OC(=O)C[C@H](O)C[C@H](O)CC[C@@H](O)[C@H](O)C[C@H](O)C[C@]3(O)C[C@H](O)[C@@H](C(=O)O)[C@H](C2)O3)C(O)C(N)C1O (stereo not given in full) .
Result: 50.2

###

Here the recorded TGI is given for each entry.
tested on: NCI-H522 lung; test: NCI tumour cell line growth inhibition, 48 h

Problem: Tell us which TGI value is on record for O=c1[nH]c(Nc2cccc(Br)c2)nc2nc[nH]c12
Result: > 100 µM

Problem: Tell us which TGI value is on record for COc1ccccc1N1CCN(C(=O)c2ccc(NS(=O)(=O)c3cccc4cccnc34)cc2)CC1
Result: > 88.5 µM

Problem: Tell us which TGI value is on record for CCC(O)(c1ccc(OC)cc1)C(c1ccc(OCc2ccccc2)cc1)c1ccc(OCc2ccccc2)cc1 (stereo not given)
Result: > 100 µM

Problem: Tell us which TGI value is on record for CC1(C)CCC2(C(=O)O)CC[C@]3(C)C(=CCC4C5(C)CC[C@H](OC6OC(C(=O)O)C(O)C(OC7OC(CO)C(O)C(O)C7O)C6OC6OC(CO)C(O)C(O)C6O)C(C)(C)C5CCC43C)C2C1 (stereo not given in full)
Result: > 100 µM

Problem: Tell us which TGI value is on record for COc1cc2ccc(/C(C)=N/OC(C)=O)cc2cc1OC
Result: > 100 µM

Problem: Tell us which TGI value is on record for Cc1ccc(/C=N/Nc2nncc3ccccc23)s1
Result: > 100 µM

Problem: Tell us which TGI value is on record for Cc1ccc(Nc2nc(=O)[nH]c(=O)[nH]2)cc1N=[N+]=[N-]
Result: > 100 µM

Problem: Tell us which TGI value is on record for O=C(N/N=C\c1ccc([N+](=O)[O-])cc1)Nc1cccc2ccccc12
Result: > 100 µM

Problem: Tell us which TGI value is on record for CNC(=O)c1cncc(/C=C/c2c(C)cccc2C)c1
Result: > 25 µM

Problem: Tell us which TGI value is on record for N#Cc1nn(C2OC(COC(=O)c3ccccc3)C(OC(=O)c3ccccc3)C2OC(=O)c2ccccc2)c2nc[nH]c(=O)c12 (stereo not given)
Result: > 100 µM

###

tested on: UACC-62 melanoma; experiment: NCI tumour cell line growth inhibition, 48 h
Here the recorded TGI is given for each entry.

Look over these answered cases.
>>> result("NC(Cc1c[nH]c2ccccc12)C(=O)O (centres undefined)")
"> 300 µM"
>>> result("CC(C)(C)N1CC(OC(N)=O)C1")
"> 100 µM"
>>> result("Cc1ccc(Nc2sc(C)cc2C#N)c([N+](=O)[O-])c1")
"> 100 µM"

Moving on to another compound below.
Problem: Check UACC-62 melanoma data and give TGI for O[C@H]1[C@H](O)[C@H](O)CN2CCC[C@@H](O)[C@H]12 .
Result: > 100 µM

###

system: M14 melanoma; assay: NCI tumour cell line growth inhibition, 48 h
Here the recorded TGI is given for each entry.
Return type: number; implicit unit µM.

Look over these answered cases.
>>> numeric_value("N#C[C@@]12CCCC(=O)[C@@H]1[C@H]1CCC[C@H]12")
30.2
>>> numeric_value("C#Cc1cccc(Nc2ncnc3ccc(-c4cnc(Cl)c(NS(C)(=O)=O)c4)cc23)c1")
2.41
>>> numeric_value("N#C/C(=C/C=C/c1ccccc1)S(=O)c1ccccc1 (stereo unspecified)")
2.7

Moving on to another compound below.
Problem: Tell us which TGI value is on record for COc1cccc2c1C(=O)c1c(O)c3c(c(O)c1C2=O)C[C@@](O)(/C(C)=N/NC(=O)c1ccccc1)C[C@@H]3OC1CC(N)C(O)C(C)O1 (stereo partly specified)
Result: 1.48

###

system: U251 CNS; assay: NCI tumour cell line growth inhibition, 48 h
parameter_measured: log10(TGI) (log10 of the value in µM)
Recorded TGI (log10, µM)

Look over these answered cases.
>>> numeric_value("S=C(c1c[nH]c2ccccc12)N1CCN(c2ccccc2)CC1")
1.89
>>> numeric_value("Oc1cccc(Cn2c(-c3cccc(O)c3O)nc3ccccc32)c1O")
1.42
>>> numeric_value("CC(C)Cc1ccc(C(C)/C=C2\\CCC(CN3CCCC3)C2=O)cc1 (stereo not given)")
1.25
>>> numeric_value("O=C(Nc1ccc(Cl)cc1)c1cc2cc(F)ccc2cc1O")
0.82
>>> numeric_value("ClC1(c2ccccc2)c2ccc(Br)cc2-c2cc(Br)ccc21")
1.50

Problem: Tell us which log10(TGI) value is on record for CC1=C(/C=C/C2=CC(=C\C(=O)O)/CC(C3=C(C)CCCC3(C)C)C2)C(C)(C)CCC1 (stereo not given)
Result: 1.36

Problem: Tell us which log10(TGI) value is on record for COc1cccc2c1C(=O)c1c(O)c3c(c(O)c1C2=O)C[C@@](O)(/C(C)=N/NC(=O)c1ccccc1)C[C@@H]3OC1CC(N)C(O)C(C)O1 (stereo not given in full)
Result: 0.86

Problem: Tell us which log10(TGI) value is on record for CN(C)c1ccc2cc(-c3cc4c(oc3=O)-c3ccccc3OC4O)c(=O)oc2c1 (stereo not given)
Result: 1.20

Problem: Tell us which log10(TGI) value is on record for CCC(c1ccc(OC)cc1)C(CC)c1ccc(O)c(CN2CCCC2)c1 (stereo not given)
Result: 0.75

###

tested on: SK-OV-3 ovarian; assay: NCI tumour cell line growth inhibition, 48 h
Here the recorded GI50 is given for each entry.

Problem: Tell us which GI50 value is on record for COc1cccc(-c2nc(-c3ccc(NC(=O)c4ccccc4)cc3)[nH]c2-c2ccnc(Br)c2)c1
Result: 3.05 µM

Problem: Tell us which GI50 value is on record for COc1ccccc1N1CCN(C(=O)c2ccc(NS(=O)(=O)c3cccc4cccnc34)cc2)CC1
Result: > 45.5 µM

Problem: Tell us which GI50 value is on record for NC(=O)c1cc(Cl)ccc1NC(=O)c1ccccc1-c1ccccc1
Result: 0.677 µM

Problem: Tell us which GI50 value is on record for CNC(=O)c1cncc(/C=C/c2c(C)cccc2C)c1
Result: > 25 µM

Problem: Tell us which GI50 value is on record for CC1(C)CCC2(C(=O)O)CC[C@]3(C)C(=CCC4C5(C)CC[C@H](OC6OC(C(=O)O)C(O)C(OC7OC(CO)C(O)C(O)C7O)C6OC6OC(CO)C(O)C(O)C6O)C(C)(C)C5CCC43C)C2C1 (stereo partly specified)
Result: > 100 µM

Problem: Tell us which GI50 value is on record for COc1ccc(Cl)cc1NC(=O)c1c(NC(=O)C(F)(F)C(F)(F)F)sc2c1CCCCC2
Result: 2.18 µM

###

test system: A549 NSCLC; test: NCI tumour cell line growth inhibition, 48 h
Here the recorded TGI is given for each entry.

>>> result("O=c1ccccc(-c2ccc(-c3ccco3)cc2)c1O")
"47.5 µM"
>>> result("O[C@H]1[C@H](O)[C@H](O)CN2CCC[C@@H](O)[C@H]12")
"> 100 µM"
>>> result("O=C1OC[C@@H]2Cc3c([nH]c4ccccc34)[C@@H](c3cc(O)c(O)c(O)c3)N12")
"> 100 µM"
>>> result("Cc1ccc(O)c(-c2csc(NCN3CCN(CNc4nc(-c5cc(C)ccc5O)cs4)CC3)n2)c1")
"> 100 µM"
>>> result("COc1cc2c3c(n(Cc4ccccc4)c(=O)c2cc1OC)-c1ccccc1C3=O")
"> 100 µM"
>>> result("C[Si](C)(C)/C=C\\CCCN1C(=O)CCC1=O")
"> 100 µM"
>>> result("CC1=C2C(=O)C(C)(C)C=C2C(=O)[C@](C)(O)C12CC2")
"> 1 µM"

Moving on to another compound below.
Problem: Tell us which TGI value is on record for O=C(N/C(=C\c1ccc([N+](=O)[O-])cc1)c1nc2ccc(Cl)cc2[nH]1)c1ccccc1
Result: 74.8 µM
